- targetSystem: HLA-A*26:01
- experimentalDetails: IEDB peptide-MHC binding, purified MHC/competitive/radioactivity; bounds were set here for any values at or beyond the usual limits of such assays
- studyConditions: source organism: Vaccinia virus WR
Could you please report measured IC50 for the items listed next?
Response body: numeric value in nM, unit text excluded.

Task item: Fill in the blank: the reported IC50 of `NQGNILMDSI` is ____.
Reply: 2780

Task item: Entry to check: `SQIFNIISYI`
Reply: 397

* * *

Could you please report measured pIC50 for the items listed next?
- targetSystem: HLA-A*02:01
- experimentalDetails: IEDB peptide-MHC binding, purified MHC/competitive/radioactivity; bounds were set here for any values at or beyond the usual limits of such assays
- studyConditions: source organism: Vaccinia virus WR
Quick note: pIC50 means taking -log10 of the concentration in moles per liter.

Task item: State its pIC50 on HLA-A*02:01: `FLYNVYPGA`
Reply: 8.89

Task item: Entry to check: `FAISYCRAFI`
Reply: 5.70

Task item: Entry to check: `MIYGLIACL`
Reply: 8.07

Task item: Entry to check: `FLLIRYITT`
Reply: 7.34

Task item: Entry to check: `LMIGNYFSGV`
Reply: 9.57

Task item: Entry to check: `NVISKIYTL`
Reply: 6.83

Task item: Entry to check: `KAKQLCYCPA`
Reply: 5.83

Task item: Entry to check: `VVYHDDDNTT`
Reply: 5.53

Task item: Entry to check: `WLKDSAIMV`
Reply: 6.49

Task item: Entry to check: `IVLYNGVNYL`
Reply: 6.65

Task item: Entry to check: `GLCIRISMVI`
Reply: 5.69

* * *

- targetSystem: HLA-A*02:06
- experimentalDetails: IEDB peptide-MHC binding, purified MHC/competitive/radioactivity; bounds were set here for any values at or beyond the usual limits of such assays
- studyConditions: source organism: Vaccinia virus WR
resultType: log10(IC50) (log10 of the value in nM)
Units before log transform: nM; reported quantity: IC50; transform: log10.

Task item: Fill in the blank: the reported log10(IC50) of `YLGHSAGFTA` is ____.
Reply: 2.16

Task item: Entry to check: `IVSHLRASTT`
Reply: 2.24

Task item: Entry to check: `STTGEWPLI`
Reply: 3.09

Task item: Entry to check: `RVLYDEFVT`
Reply: 3.24

Task item: Entry to check: `TIAGGVCYYL`
Reply: 0.60

Task item: Entry to check: `FAFIDFSKST`
Reply: 3.15

Task item: Entry to check: `MLPESDLDKV`
Reply: 0.64

Task item: Entry to check: `TLLIKTLSPA`
Reply: -0.14

Task item: Entry to check: `RIITILQDI`
Reply: 0.30

Task item: Entry to check: `KLLNMRDLIV`
Reply: 0.45

Task item: Entry to check: `RVSENTGMGM`
Reply: 2.16

Task item: Entry to check: `DTDIVNNFIT`
Reply: 3.36

Task item: Entry to check: `MLDDFSAGA`
Reply: 2.06

Task item: Entry to check: `KIIAVFDSKL`
Reply: 1.77

Task item: Entry to check: `KIVQLPKRGV`
Reply: 3.35

Task item: Entry to check: `IIMAINVFT`
Reply: 1.00

Task item: Entry to check: `SVDVDIYDA`
Reply: 2.98

Task item: Entry to check: `FTSDYPFYV`
Reply: 0.56

Task item: Entry to check: `FISPASISSV`
Reply: 0.30

Task item: Entry to check: `RQDYRRSINV`
Reply: 3.35

Task item: Entry to check: `RQVSVKLLI`
Reply: -0.89

Task item: Entry to check: `RVTTELNIV`
Reply: 1.66

Task item: Entry to check: `FIISTLNKI`
Reply: 0.76

Task item: Entry to check: `ILSLETVKM`
Reply: 2.45

Task item: Entry to check: `SLTQVKELGI`
Reply: 2.20

Task item: Entry to check: `LVSDCASTI`
Reply: 1.79

Task item: Entry to check: `SALMTLDDLA`
Reply: 2.29

Task item: Entry to check: `HINDQKFDDV`
Reply: 3.08

Task item: Entry to check: `KILSDENYLL`
Reply: 1.20

Task item: Entry to check: `TQVKELGIAI`
Reply: 0.59

Task item: Entry to check: `KTPDYPLIDI`
Reply: 2.86

Task item: Entry to check: `KLVETGFVI`
Reply: 2.30

Task item: Entry to check: `VTLFIDRGSI`
Reply: 3.48

Task item: Entry to check: `EVIERINLLV`
Reply: 2.48

Task item: Entry to check: `ILATLNTLIT`
Reply: 2.80

Task item: Entry to check: `GALYLGHSA`
Reply: 2.90

Task item: Entry to check: `LVFNSISARA`
Reply: 2.85

Task item: Entry to check: `FLLPLTSLVI`
Reply: 0.40

Task item: Entry to check: `GTIILNKIV`
Reply: 3.16

Task item: Entry to check: `SMHFYGWSL`
Reply: 2.58

Task item: Entry to check: `FVNFNSVKNL`
Reply: 3.34

Task item: Entry to check: `AAIDRQVSV`
Reply: 1.18

Task item: Entry to check: `VIVPDIKLDA`
Reply: 2.95

Task item: Entry to check: `HLMSDNPKA`
Reply: 2.72
